tested on: IFNγ; assay: Cytokine assay: IFNγ release from PHA-L stimulated human PBMCs; type: cell-based; details: Homo sapiens, PBMC
pIC50: −log10 of the molar value.
ASSAY METRIC: pIC50

Known pIC50 results, listed for orientation:
MOLECULE	READOUT NUMBER
CCOc1cc(C2COB(O)C2)nc(-c2ccc(OC)c(OCC)c2)n1 (stereo not shown) [Example 222]	8.93
CCCOc1c(OC)ccc(-c2cncc(C3COB(O)C3)c2)c1F (stereo not shown)	8.79
CCCOc1cc(-c2nc(C3COB(O)C3)ccc2F)ccc1OC (stereo not shown)	8.14
COc1cc(-c2ccc(OC)c(OC3CCCC3)c2)nc(C2COB(O)C2)n1 (single isomer, unassigned; enantiomer 2) [Example 176]	8.53

A: CCOc1cc(-c2cc(C(F)(F)F)cc(C3COB(O)C3)n2)ccc1OC (stereo not shown)
B: CCOc1cc(-c2cncc(C3COB(O)C3)c2C)ccc1OC (single isomer, unassigned; enantiomer 2) [Example 189]
C: COc1ccc(-c2nc(C3COB(O)C3)ccc2F)cc1OC1CCCC1 (stereo not shown)
Give the ascending ranking of the items by reported pIC50. Put the labels in the order asked and list them.
C, A, B

A: CCOc1cc(-c2cccc(C3COB(O)C3)c2)ccc1OC (stereo not shown)
B: CCCOc1cc(-c2cccc(C3=C(C)B(O)OC3)n2)ccc1OC
C: CCCOc1cc(-c2cccc(C3COB(O)C3)c2)ccc1OC (stereo not shown)
Task field, ranking: reported pIC50, descending order. Labels, ranked as asked.
A, C, B
(A: 8.58, C: 8.21, B: 6.70)

I: CCCOc1cc(-c2cc(C3COB(O)C3)cnc2C)cnc1OC (single isomer, unassigned; enantiomer 1) [Example 219]
II: COc1cc(-c2cncc(C3COB(O)C3)c2)ccc1SC (stereo not shown)
III: COc1ccc(-c2nc(C3COB(O)C3)ns2)cc1OC1CC1 (single isomer, unassigned; enantiomer 2)
Order by pIC50, ascending. Would you mind listing the labels in the order asked for?
II, III, I
(II: 8.02, III: 8.50, I: 8.78)

Taken from patent US11559538B2.
